Test system: Larven III der Magenbremse, Gasterophilus intestinalis
Assay: In vitro test on larvae III of Gasterophilus intestinalis (5 min immersion, mortality count)
Settings: 24 h after treatment; 10 larvae immersed 5 min in 0,1 % active dilution; kept at about 37°C
Hi there, I'd appreciate the recorded Zahl toter Larven Stunden nach Behandlung for every entry that follows.
Number only, no unit.

query: So what does the record say about Zahl toter Larven Stunden nach Behandlung for `CC1(C)[C@H](C(=O)O[C@H](C#N)c2cccc(Oc3ccccc3)c2)[C@@H]1C=C(Br)Br` ?
result: 10

query: And then CC1(C)[C@H](C(=O)O[C@H](C#N)c2cccc(Oc3ccccc3)c2)[C@@H]1C(Br)C(Cl)(Cl)Br (stereo partly shown) , what is it?
result: 10

query: And then `CC1(C)[C@H](C(=O)O[C@H](C#N)c2cccc(Oc3ccccc3)c2)[C@@H]1C=C(Cl)Cl` , what is it?
result: 10

These data points were gathered from patent EP0062704A1.
